Values compiled from the supplement of paper PMC10567573.

B1: VTI1B (parent)
chain: NKLLLSIIILLELAILGGLVYYKF

variants of: B1; assay: protein stability index of a GFP-peptide fusion (GPS, HEK-293T) (PSI 1-6); higher = more stable; settings: c terminus: a fixed tail appended;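 further: lentivirally expressed fusions sorted by FACS into six bins by GFP to DsRed ratio, PSI derived from sequencing read proportions per bin multiplied by bin number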
Kindly return TRUE if reported protein stability index is no lower than 3; return FALSE if it is lower.

Solved cases (10 shown):
Y21G: TRUE
L4K: FALSE
L10P: TRUE
I8H: TRUE
S6I: FALSE
L19F: FALSE
L16M: TRUE
L16G: TRUE
I8P: FALSE
L16S: FALSE

Evaluate `N1W` : protein stability index at minimum 3?
TRUE

Evaluate `I9Y` : protein stability index at minimum 3?
FALSE

Evaluate `F24A` : protein stability index at minimum 3?
FALSE

Evaluate `F24W` : protein stability index at minimum 3?
FALSE

Evaluate `I7E` : protein stability index at minimum 3?
FALSE

Evaluate `S6M` : protein stability index at minimum 3?
FALSE
